Tested on: SR leukemia
Experiment: NCI-60 one-dose screen, 48 h
Conditions: 10 µM unless noted
The panel holds about 83,000 compounds, 20% with a hit somewhere; the sample as a whole holds those more often. Calls of active or inactive are those of the source. The calls were made as follows: active = growth percent below 10; inactive = the rest.
Possible outcomes: label 1 (active), label 0 (inactive)

INSERT INTO measurements (molecule, group_label) VALUES
  ('CCOC(=O)c1cc(C(=O)c2ccc(Br)cc2)n2ccc(/C=C/c3cc[n+](CC(=O)c4ccc(OC)cc4)cc3)cc12', 'label 1'),
  ('O=C(/C=C(/C=C/c1csc2ccccc12)OB(F)F)/C=C/c1csc2ccccc12', 'label 1'),
  ('O=C1c2ccc3c4c(ccc(c24)C(=O)N1CCCNCc1ccccc1Cl)C(=O)N(CCCNCc1ccccc1Cl)C3=O', 'label 1'),
  ('C#CCNC(=O)[C@H](Cc1ccccc1)NC(=O)[C@]12CC[C@@H](C(=C)C)[C@@H]1[C@H]1CC[C@@H]3[C@@]4(C)CCC(=O)C(C)(C)[C@@H]4CC[C@@]3(C)[C@]1(C)CC2', 'label 0'),
  ('O=C(/C(=C\c1ccc([N+](=O)[O-])cc1)S(=O)Cc1ccc(Cl)cc1)c1ccc(Cl)cc1 (centres undefined)', 'label 0'),
  ('c1ccc2c(-c3nccs3)c[nH]c2c1', 'label 0'),
  ('O=C(NNc1nc2c(F)cccc2n2cccc12)c1cnccn1', 'label 1'),
  ('COc1ccc(C(C)=O)c(OC)c1', 'label 0'),
  ('Oc1cccc(CCc2ccc(Oc3cc(CCc4cccc(O)c4)cc(O)c3O)cc2)c1', 'label 0');

----------
Test system: SK-MEL-5 melanoma
Assay: NCI-60 one-dose screen, 48 h (100 = growth as untreated, 0 = no growth, -100 = all killed)
Settings: 10 µM unless noted
The panel holds about 83,000 compounds, 20% with a hit somewhere; the sample as a whole holds those more often.
Give Criterion met when the value for growth is at least 80%. Give Criterion not met when it is less.

INSERT INTO measurements (compound, group_label) VALUES
  ('Cc1ccc(-n2nc3c(c(C#N)c2=O)CC(c2ccccc2[N+](=O)[O-])C([N+](=O)[O-])=C3O)cc1 (centres undefined)', 'Criterion met'),
  ('O=C(Nc1ccc(Cl)cc1)c1cc(NCc2cc(O)ccc2O)ccc1O', 'Criterion met'),
  ('O=C1Nc2cc(-c3ccc(NC(=O)C4CC4)cc3)ccc2/C1=C/c1ccc[nH]1', 'Criterion met'),
  ('COc1cccc(-c2ccc3c(c2)NC(=O)/C3=C\c2ccc[nH]2)c1', 'Criterion not met'),
  ('O=[N+]([O-])CC(c1ccccc1)c1c[nH]c2ccccc12 (centres undefined)', 'Criterion not met'),
  ('Nc1c(S(=O)(=O)O)cc2c3c(cccc13)C(=O)OC2=O', 'Criterion met'),
  ('COc1ccc2c(c1)oc1c(C)c3c(c(C)c12)C(=O)N(CCN1CCOCC1)C3=O', 'Criterion met'),
  ('COc1cc2c(cc1OC)C(=O)/C(=C/c1cc(C)c(O)c(C)c1)S2', 'Criterion not met'),
  ('O=c1ccc(-c2nc(N3CCOCC3)c3ccccc3n2)c[nH]1', 'Criterion met'),
  ('N#C/C(=C\c1ccc([N+](=O)[O-])s1)c1nc2cc(Br)ccc2s1', 'Criterion not met'),
  ('C=C1C(=O)O[C@H]2[C@H]1CC/C(COC(=O)NCCc1c[nH]c3ccc(OC)cc13)=C\CC[C@@]1(C)O[C@@H]21', 'Criterion not met'),
  ('CCOC(=O)c1cc(C(=O)c2ccc(OC)cc2)n2ccc(/C=C/c3cc[n+](CC(=O)c4ccc(OC)cc4)cc3)cc12', 'Criterion met'),
  ('CCOC(=O)c1cc(C(=O)c2ccc(Br)cc2)n2ccc(/C=C/c3cc[n+](CC(=O)c4ccc(OC)cc4)cc3)cc12', 'Criterion met'),
  ('O=C(c1nc2ccccc2[nH]1)C1C(c2ccc(Br)cc2)C2CC3CCCC[C@H]3N2[C@@]12C(=O)Nc1cc(Cl)ccc12 (some centres undefined)', 'Criterion not met'),
  ('COCCCN1CC(O)=C(c2nc(-c3ccc(C)cc3)cs2)C1=N', 'Criterion met'),
  ('COc1cccc(-c2nc3occn3c2-c2ccnc(NCCNS(=O)(=O)c3ccc(C(F)(F)F)cc3)n2)c1', 'Criterion met'),
  ('CCN(CC)CCCC(C)Nc1cc(O)cc2cccnc12 (centres undefined)', 'Criterion met'),
  ('O=C(NO)c1ccc(-n2nc(-c3ccccc3)c3ccccc32)cc1', 'Criterion not met'),
  ('CC1(C)NCCC[C@]2(C)[C@H]3CC(=O)[C@H]4[C@@H]5C[C@](C)(CO)CC[C@]5(C)CC[C@@]4(C)[C@]3(C)CC[C@@H]12', 'Criterion met');

----------
System: CAKI-1 renal
Test: NCI-60 one-dose screen, 48 h (100 = growth as untreated, 0 = no growth, -100 = all killed)
Conditions: 10 µM unless noted
Compounds without any hit were thinned out: in the full panel of roughly 83,000, 20% have a hit.
Listed below: growth values for each entry.
MEASURED ATTRIBUTE: growth (%)

INSERT INTO assay_data (molecule, measured_attribute, numeric_result) VALUES
  ('COc1ccc(CC(C)=C(c2ccc(OCCN3CCCCCC3)cc2)c2ccc(OCCN3CCCCCC3)cc2)cc1', 'growth', -92.5),
  ('C[C@H]1[C@H](C)CC[C@]2(C(=O)NCC#CCN3CCN(C)CC3)CC[C@]3(C)C(=CC[C@@H]4[C@@]5(C)Cc6c([nH]c7ccccc67)C(C)(C)[C@@H]5CC[C@]43C)[C@H]12', 'growth', 91.9),
  ('Cc1ccc(NC(=O)Cc2ccc(/C=C/C(=O)c3ncc[nH]3)cc2)cc1', 'growth', 61.1),
  ('CCOC(=O)CCN(CC(C)C)C(=S)Nc1ccccc1', 'growth', 102),
  ('CCCOc1ccc(/C=N/Nc2cc(C)nc3ccc(Br)cc23)cc1', 'growth', 91.3),
  ('COC(=O)C(OC(C)=O)C(OC(C)=O)c1ccc(OC)c(OC)c1 (stereo not given)', 'growth', 101),
  ('N/C(=N\C(N)=N\c1nc2ccccc2s1)c1ccnc(Br)c1', 'growth', 25.4),
  ('CC1=C(C(=O)/C=C/c2c[nH]c3ccccc23)C(c2ccccc2)NC(=S)N1 (stereo not given)', 'growth', 77.8),
  ('O=C(Nc1cccc(C(=O)N2CCc3ccc(Cl)cc32)c1)c1ccco1', 'growth', 29.6),
  ('O=C(Nc1ccc(F)cc1)Nc1ccc(NC(=O)c2cc(Cl)nc3ccccc23)cc1', 'growth', 78.5);

----------
System: UACC-62 melanoma
Test: NCI-60 one-dose screen, 48 h (100 = growth as untreated, 0 = no growth, -100 = all killed)
Conditions: 10 µM unless noted
This is part of a sample that, as a whole, favours compounds with a hit. Of some 83,000 tested, about 20% had one in any assay.
Classify: criterion met when growth is strictly less than 70%; criterion not met when growth is not.

INSERT INTO assay_data (compound, group_label) VALUES
  ('S=c1cc(S)c2cc(Br)ccc2[nH]1', 'criterion not met'),
  ('CNCCn1c(=O)c2cc(OC)c(OC)cc2c2ccc3cc4c(cc3c21)OCO4', 'criterion met'),
  ('CCNC(=O)Oc1ccc(/C(=C(\C)c2ccccc2)c2ccc(OCCN(CC)CC)cc2)cc1', 'criterion met'),
  ('N#C/C(=C\c1cccc(C#N)c1)c1ccccc1', 'criterion not met'),
  ('COc1cc2c(=O)n(CCN(C)C)c3c4cc5c(cc4ccc3c2cc1OC)OCO5', 'criterion met'),
  ('CNC(=O)c1cc(Cn2nc(C)c(NC(=O)Nc3ccc(Cl)c(C(F)(F)F)c3)c2C)ccn1', 'criterion not met'),
  ('C=C1C(=O)O[C@H]2[C@H]1CC/C(CNC(=O)C(C)c1ccc(CC(C)C)cc1)=C\CC[C@@]1(C)O[C@@H]21 (stereo partly specified)', 'criterion met'),
  ('Fc1ccc2c(-c3cncn3CCc3ccccc3)c[nH]c2c1', 'criterion not met'),
  ('O=C(/C=C(/C=C/c1coc2ccccc12)OB(F)F)/C=C/c1coc2ccccc12', 'criterion not met'),
  ('COC(=O)C(CC=O)C(=O)C(=O)Nc1cccc(C(F)(F)F)c1 (stereo unspecified)', 'criterion not met'),
  ('O=Cc1ccc(-c2cn3ccnc3c(-c3ccc4ncn(Cc5ccccc5)c4c3)n2)cc1', 'criterion met'),
  ('O=C(CCN1CCCC1)Nc1ccc2c(NCCCc3ccccc3)c3ccccc3nc2c1', 'criterion met'),
  ('O=S(=O)(NCCCNc1nccc(-c2c(-c3cccc(F)c3)nc3sccn23)n1)c1cccc(F)c1', 'criterion met'),
  ('Cc1nn(-c2ccccc2)c(Oc2c(Cl)cccc2Cl)c1/C=N/N=c1\sc2ccccc2n1C', 'criterion met'),
  ('O=C(CSc1nc2ccccc2[nH]1)NCc1ccccc1', 'criterion not met'),
  ('Cn1c2ccccc2c2c3c(c4c5ccccc5n(C)c4c21)C(=O)OC3', 'criterion not met'),
  ('COc1ccc(-c2cnc3c(-c4cccc5cnccc45)cnn3c2)cc1', 'criterion met'),
  ('OCc1cnccc1NCCCCOc1ccc(Oc2ccccc2)cc1', 'criterion met'),
  ('CCc1c(Cl)nc(N)nc1Nc1ccc(C)c(C)c1', 'criterion not met'),
  ('O=C1Nc2cc(-c3cccc([N+](=O)[O-])c3)ccc2/C1=C/c1ccc[nH]1', 'criterion not met');
